Taken from PubChem BioAssay (NCI).

Catalogue of compounds with associated TGI
# Test system: LOX IMVI melanoma
# Assay Details: NCI tumour cell line growth inhibition, 48 h

Compound: Cc1ccc(/C=C2\CN(C(=O)OC(C)(C)C)C/C(=C\c3ccc(C)cc3)C2=O)cc1
TGI: > 100 µM
--
Compound: O=[N+]([O-])C(=C(N1CCCCC1)N1CCCCC1)/C(Cl)=C(\Cl)Br
TGI: 44.9 µM
--
Compound: Cc1ccccc1OC(C)C(=O)NN1C(=O)CC(=O)N(c2ccc(Cl)cc2)C1=S (stereo not given)
TGI: > 100 µM
--
Compound: O=C(NC(Cc1c[nH]c2ccccc12)C(=O)O)/C(=C/c1ccccc1O)NC(=O)c1ccccc1 (stereo not given)
TGI: > 100 µM
--
Compound: CCN(CC)CCNc1ccc2nnn3c4ccc(OC)cc4c(=O)c1c23
TGI: 11.1 µM
--
Compound: CSC1CC2C(CC1(C)O)C2(C)C (stereo not given)
TGI: > 100 µM
--
Compound: C[C@H](Nc1ncnc2nc[nH]c12)c1cc2cccc(Cl)c2c(=O)n1-c1ccccc1
TGI: > 100 µM
--
Compound: CC1=NCCc2c1[nH]c1cc(O)ccc21
TGI: > 100 µM
--
Compound: C=C(Cl)/C(=C\Cl)CCC(Br)C(C)C (stereo not given)
TGI: 31.4 µM
--
Compound: Cc1cc(N(CCC#N)S(=O)(=O)c2ccccc2)ccc1/C=C1N=C(/C=C/c2ccccc2)OC\1=O
TGI: > 100 µM
